- Test protocol: Cytotoxicity against mouse S17 cells after 72 hrs by MTT assay
- Format: functional, cell-based
- Experimental conditions: S17, 72 h
pIC50: −log10 of the molar value.
Measured attribute: pIC50

> print(dat)
                                   molecule  measured.attribute     obs.value
1  c1cc2c(cc1[C@H]1OC[C@H]3[C@@H]1CO[C@@H]3c1ccc3c(c1)OCO3)OCO2               pIC50  3.63 to 3.64
2  COc1ccc(-c2oc3cc(OC)c(OC)c(O)c3c(=O)c2OC)cc1OC               pIC50  3.63 to 3.64

Lab note: next molecule to report on.
Please fill in: pIC50 reported for CC1=CCC2[C@@H]1[C@H]1OC(=O)[C@@H](C)[C@@H]1C[C@]1(C)O[C@H]21 (stereo partly drawn) = 3.63 to 3.64
